# Tested on: HeLa cells
# METHOD: Bidimensional HeLa cell proliferation (MTT assay), drugs alone or combined
# Format: cell-based, human
# CONDITION_NOTES: drug alone; 24 h of drug exposure; read-out: IC50, bidimensional HeLa cell growth
Can you tell me IC50 for the items I'm about to list?
Please reply with the bare figure in µM and do not write the unit itself.

State, in one line, measured IC50 of N.N.[Cl][Pt][Cl] [Cisplatin, cisplatin] 15

State, in one line, measured IC50 of Cc1c(C)c2c(c(C)c1OC(=O)CCC(=O)O)CC[C@@](C)(CCC[C@H](C)CCC[C@H](C)CCCC(C)C)O2 [α-TOS, α-tocopheryl succinate] 1.2

State, in one line, measured IC50 of `N.N.O=C([O-])C1(C(=O)[O-])CCC1.[Pt+2]` 1000

* * *

# Test system: HeLa MCTS
# METHOD: HeLa multi-cellular tumor spheroid (MCTS) growth, preventive and curative protocols
# Assay type: cell-based, human
# CONDITION_NOTES: drug alone, added once spheroids were formed (day 10); determined at day 20 of growth; read-out: IC50, tridimensional HeLa MCTS, Curative
ASSAY_ENDPOINT: pIC50
pIC50 is a log-scale quantity: -log10 of the concentration expressed in molar.

State, in one line, measured pIC50 of Cc1c(C)c2c(c(C)c1OC(=O)CCC(=O)O)CC[C@@](C)(CCC[C@H](C)CCC[C@H](C)CCCC(C)C)O2 [α-TOS, α-tocopheryl succinate] 4.30

State, in one line, measured pIC50 of N.N.[Cl][Pt][Cl] [Cisplatin, cisplatin] 3.57

State, in one line, measured pIC50 of `N.N.O=C([O-])C1(C(=O)[O-])CCC1.[Pt+2]` 3.54

* * *

# Tested on: HeLa MCTS
# METHOD: HeLa multi-cellular tumor spheroid (MCTS) growth, preventive and curative protocols
# Format: cell-based, human
# CONDITION_NOTES: Homo sapiens, HeLa, 480 h; drug alone, added at the beginning of culture; determined at day 20 of growth; read-out: IC50, tridimensional HeLa MCTS, Preventive
ASSAY_ENDPOINT: IC50 (µM)
Please reply with the bare figure in µM and do not write the unit itself.

State, in one line, measured IC50 of `Nc1ccn([C@@H]2O[C@H](CO)[C@@H](O)C2(F)F)c(=O)n1` 0.065

State, in one line, measured IC50 of `Cc1ccc(C)c(-c2cc(C(F)(F)F)nn2-c2ccc(S(N)(=O)=O)cc2)c1` 0.01

State, in one line, measured IC50 of `CC(=O)O[C@H]1C(=O)[C@@]2(C)[C@H]([C@H](OC(=O)c3ccccc3)[C@]3(O)C[C@H](OC(=O)[C@H](O)[C@@H](NC(=O)c4ccccc4)c4ccccc4)C(C)=C1C3(C)C)[C@]1(OC(C)=O)CO[C@@H]1C[C@@H]2O` 0.016

State, in one line, measured IC50 of `Cc1c(C)c2c(c(C)c1OCC(=O)O)CC[C@@](C)(CCC[C@H](C)CCC[C@H](C)CCCC(C)C)O2` 0.025

State, in one line, measured IC50 of `COc1cccc2c1C(=O)c1c(O)c3c(c(O)c1C2=O)C[C@@](O)(C(=O)CO)C[C@@H]3O[C@H]1C[C@H](N)[C@H](O)[C@H](C)O1` 0.048

* * *

# Test system: HeLa cells
# METHOD: Bidimensional HeLa cell proliferation (MTT assay), drugs alone or combined
# Assay type: cell-based, human
# CONDITION_NOTES: Homo sapiens, HeLa; drug alone; 24 h of drug exposure; read-out: IC50, bidimensional HeLa cell growth
Rule: IC50 below 30 µM gives class 1, anything at or above gives class 0.

Check if IC50 falls below 30 µM for `COc1cccc2c1C(=O)c1c(O)c3c(c(O)c1C2=O)C[C@@](O)(C(=O)CO)C[C@@H]3O[C@H]1C[C@H](N)[C@H](O)[C@H](C)O1` . class 1

Check if IC50 falls below 30 µM for `Cc1ccc(-c2cc(C(F)(F)F)nn2-c2ccc(S(N)(=O)=O)cc2)cc1` . class 0

Check if IC50 falls below 30 µM for `Cc1ccc(C)c(-c2cc(C(F)(F)F)nn2-c2ccc(S(N)(=O)=O)cc2)c1` . class 0

Check if IC50 falls below 30 µM for `Cc1c(C)c2c(c(C)c1OCC(=O)O)CC[C@@](C)(CCC[C@H](C)CCC[C@H](C)CCCC(C)C)O2` . class 1

Check if IC50 falls below 30 µM for `CC(=O)O[C@H]1C(=O)[C@@]2(C)[C@H]([C@H](OC(=O)c3ccccc3)[C@]3(O)C[C@H](OC(=O)[C@H](O)[C@@H](NC(=O)c4ccccc4)c4ccccc4)C(C)=C1C3(C)C)[C@]1(OC(C)=O)CO[C@@H]1C[C@@H]2O` . class 1

* * *

# Tested on: 3T3 fibroblasts
# METHOD: Bidimensional 3T3 fibroblast proliferation (MTT assay)
# Assay type: cell-based, mouse
# CONDITION_NOTES: Mus musculus, NIH3T3; drug alone; 24 h of drug exposure; non-cancer; read-out: IC50, bidimensional 3T3 cell growth
ASSAY_ENDPOINT: IC50 (µM)
Please reply with the bare figure in µM and do not write the unit itself.

Fetch value of IC50 on 3T3 fibroblasts for `CC(=O)O[C@H]1C(=O)[C@@]2(C)[C@H]([C@H](OC(=O)c3ccccc3)[C@]3(O)C[C@H](OC(=O)[C@H](O)[C@@H](NC(=O)c4ccccc4)c4ccccc4)C(C)=C1C3(C)C)[C@]1(OC(C)=O)CO[C@@H]1C[C@@H]2O` . 80

Fetch value of IC50 on 3T3 fibroblasts for `Cc1ccc(C)c(-c2cc(C(F)(F)F)nn2-c2ccc(S(N)(=O)=O)cc2)c1` . 69

Fetch value of IC50 on 3T3 fibroblasts for `COc1cccc2c1C(=O)c1c(O)c3c(c(O)c1C2=O)C[C@@](O)(C(=O)CO)C[C@@H]3O[C@H]1C[C@H](N)[C@H](O)[C@H](C)O1` . 51

* * *

# System: HeLa MCTS
# METHOD: HeLa multi-cellular tumor spheroid (MCTS) growth, preventive and curative protocols
# Format: cell-based, human
# CONDITION_NOTES: Homo sapiens, HeLa, 480 h, read-out: IC50, tridimensional HeLa MCTS, Preventive
ASSAY_ENDPOINT: pIC50
pIC50 is a log-scale quantity: -log10 of the concentration expressed in molar.

State, in one line, measured pIC50 of O=P1(N(CCCl)CCCl)NCCCO1 (centres unmarked) [Cyclophosphamide, cyclophosphamide] 6.87

State, in one line, measured pIC50 of Cc1ccc(-c2cc(C(F)(F)F)nn2-c2ccc(S(N)(=O)=O)cc2)cc1 [Celecoxib, celecoxib] 9.00

Reference source for all entries: paper PMC7765098
